Tested on: tobacco budworm (Heliothis virescens [Fabricius])
Assay: Diet test: test chemical incorporated into artificial diet of tobacco budworm larvae, 5-day exposure
Format: in vivo
Measurement conditions: Heliothis virescens, 120 h, negative log of the concentration that provides 50% growth inhibition, by linear regression; 5 days; * = average of more than one test; read-out: pl50 (converted)
Measured property: IC50 (µM)
Numbers only, in µM.

Some entries whose results are on file:
| Compound | Measured on | Unit annotation | IC50 |
| --- | --- | --- | --- |
| Cc1cccc(Oc2ccc(C[N+]3([O-])CCC(C(O)(c4ccc(C(F)(F)F)cc4)c4ccc(C(F)(F)F)cc4)CC3)cc2)n1 (centres unmarked) | tobacco budworm (Heliothis virescens [Fabricius]) | µM | 0.631 |
| OC(c1ccc(C(F)(F)F)cc1)(c1ccc(C(F)(F)F)cc1)C1CCN(Cc2ccc(-c3nnn(C(F)F)n3)cc2)CC1 | tobacco budworm (Heliothis virescens [Fabricius]) | µM | 0.631 |
| Cc1cccnc1Oc1ccc(CN2CCC(C(O)(c3ccc(C(F)(F)F)cc3)c3ccc(C(F)(F)F)cc3)CC2)cc1 | tobacco budworm (Heliothis virescens [Fabricius]) | µM | 0.794 |
| OC(c1ccc(C(F)(F)F)cc1)(c1ccc(C(F)(F)F)cc1)C1CCN(Cc2ccc(-c3nnn(CCCF)n3)cc2)CC1 | tobacco budworm (Heliothis virescens [Fabricius]) | µM | 0.631 |
| COc1ccc(CCN2CCC(C(O)(c3ccc(OC(F)(F)F)cc3)c3ccc(OC(F)(F)F)cc3)CC2)cc1 | tobacco budworm (Heliothis virescens [Fabricius]) | µM | 2.51 |
| COc1ccc(CN2CCC(C(O)(c3ccc(OC(F)(F)F)cc3)c3ccc(OC(F)(F)F)cc3)CC2)cc1 | tobacco budworm (Heliothis virescens [Fabricius]) | µM | 0.794 |

Hi there! I need IC50 for each item below, if you can.
1. CC(Oc1ccc(CN2CCC(C(O)(c3ccc(C(F)(F)F)cc3)c3ccc(C(F)(F)F)cc3)CC2)cc1)c1ccccn1 (centres unmarked)
2. OC(c1ccc(C(F)(F)F)cc1)(c1ccc(C(F)(F)F)cc1)C1CCN(Cc2ccc(-c3ccc(Cl)cn3)cc2)CC1

Response:
1
31.6

---

System: tobacco budworm (Heliothis virescens [Fabricius])
Assay: Diet test: test chemical incorporated into artificial diet of tobacco budworm larvae, 5-day exposure
Type: in vivo
Measurement conditions: Heliothis virescens, feed or water, 120 h, read-out: Percent Mortality
Measured property: mortality at 100 µM
Include the unit after the number when you answer.

Answered examples (2):
| Molecule | Reported value |
| --- | --- |
| Cc1cccc(-c2ccc(CN3CCC(C(O)(c4ccc(C(F)(F)F)cc4)c4ccc(C(F)(F)F)cc4)CC3)cc2)n1 | 100% |
| CC(Oc1ccc(CN2CCC(C(O)(c3ccc(C(F)(F)F)cc3)c3ccc(C(F)(F)F)cc3)CC2)cc1)c1ccccn1 (centres unmarked) | 100% |

# batch: return mortality at 100 µM for each of the 2 molecules below
1. CC(C)(Oc1ccc(CN2CCC(C(O)(c3ccc(C(F)(F)F)cc3)c3ccc(C(F)(F)F)cc3)CC2)cc1)c1ccccn1
2. Cc1ccc(Oc2ccc(C[N+]3([O-])CCC(C(O)(c4ccc(C(F)(F)F)cc4)c4ccc(C(F)(F)F)cc4)CC3)cc2)nc1 (centres unmarked)

Response:
["30%", "100%"]

---

Would you kindly list mortality at 100 µM for each of these compounds?
Test system: tobacco budworm (Heliothis virescens [Fabricius])
Assay: Diet test: test chemical incorporated into artificial diet of tobacco budworm larvae, 5-day exposure
Assay type: in vivo
Measurement conditions: Heliothis virescens, feed or water, 120 h, read-out: Percent Mortality
Numbers only, in %.

Would you please look over these solved cases?
| Compound | Reported value |
| --- | --- |
| Cc1ccnc(Oc2ccc(C[N+]3([O-])CCC(C(O)(c4ccc(C(F)(F)F)cc4)c4ccc(C(F)(F)F)cc4)CC3)cc2)c1 (stereo not shown) [Compound 63] | 100 |
| Cc1cccc(Oc2ccc(C[N+]3([O-])CCC(C(O)(c4ccc(C(F)(F)F)cc4)c4ccc(C(F)(F)F)cc4)CC3)cc2)n1 (stereo not shown) [Compound 76] | 100 |
| Cc1cccc(-c2ccc(C[N+]3([O-])CCC(C(O)(c4ccc(C(F)(F)F)cc4)c4ccc(C(F)(F)F)cc4)CC3)cc2)n1 (stereo not shown) [Compound 50] | 100 |

List mortality at 100 µM for every entry below, keeping the order given.
1. OC(c1ccc(C(F)(F)F)cc1)(c1ccc(C(F)(F)F)cc1)C1CCN(Cc2ccc(Oc3ccccn3)cc2)CC1 [Compound 53]
2. OC(c1ccc(C(F)(F)F)cc1)(c1ccc(C(F)(F)F)cc1)C1CCN(Cc2ccc(Oc3cc(C(F)(F)F)ccn3)cc2)CC1 [Compound 64]
3. [O-][N+]1(Cc2ccc(OCc3ccccn3)cc2)CCC(C(O)(c2ccc(C(F)(F)F)cc2)c2ccc(C(F)(F)F)cc2)CC1 (stereo not shown) [Compound 79]
4. CC1CN(C(=O)c2ccc(CN3CCC(C(O)(c4ccc(C(F)(F)F)cc4)c4ccc(C(F)(F)F)cc4)CC3)cc2)C(=O)O1 (stereo not shown) [Compound 24]
5. CC(C)n1nnc(-c2ccc(CN3CCC(C(O)(c4ccc(C(F)(F)F)cc4)c4ccc(C(F)(F)F)cc4)CC3)cc2)n1 [Compound 35]
6. OC(c1ccc(OC(F)(F)F)cc1)(c1ccccc1OC(F)(F)F)C1CCN(Cc2ccc(C3OCCO3)cc2)CC1 (stereo not shown) [Compound 103]
7. O=C1OCCN1c1ccc(CN2CCC(C(O)(c3ccc(C(F)(F)F)cc3)c3ccc(C(F)(F)F)cc3)CC2)cc1 [Compound 20]
8. CCn1nnc(-c2ccc(CN3CCC(C(O)(c4ccc(C(F)(F)F)cn4)c4ccc(C(F)(F)F)cn4)CC3)cc2)n1 [Compound 104]

Response:
100
100
100
0
100
100
10
100

Provide each entry's mortality at 100 µM from the list below.
1. Cc1ccc(-c2ccc(CN3CCC(C(O)(c4ccc(C(F)(F)F)cc4)c4ccc(C(F)(F)F)cc4)CC3)cc2)nc1 [Compound 51]
2. OC(c1ccc(C(F)(F)F)cc1)(c1ccc(C(F)(F)F)cc1)C1CCN(Cc2ccc(-c3nnn(CCF)n3)cc2)CC1 [Compound 98]

Response:
100
100

---

Tested on: tobacco budworm (Heliothis virescens [Fabricius])
Assay: Diet test: test chemical incorporated into artificial diet of tobacco budworm larvae, 5-day exposure
Assay type: in vivo
Measurement conditions: Heliothis virescens, feed or water, 120 h; rate of application 4 (negative log of molar concentration in the diet); second instar larvae, 5 days, 25°C; * = average of more than one test; read-out: Percent Growth Inhibition
Please go through the items and note down their pest or weed control at 100 µM.
Give bare numbers, in %.

| Molecule | Measured on | pest or weed control at 100 µM [%] |
| --- | --- | --- |
| Cn1nnc(-c2ccc(CN3CCC(C(O)(c4ccc(OC(F)(F)F)cc4)c4ccc(OC(F)(F)F)cc4)CC3)cc2)n1 | tobacco budworm (Heliothis virescens [Fabricius]) | 100 |
| OC(c1ccc(OC(F)(F)F)cc1)(c1ccccc1OC(F)(F)F)C1CCN(Cc2ccc(C3OCCO3)cc2)CC1 (stereo not drawn) | tobacco budworm (Heliothis virescens [Fabricius]) | 100 |
| CC(=O)Nc1ccc(CN2CCC(C(O)(c3ccc(OC(F)(F)F)cc3)c3ccc(OC(F)(F)F)cc3)CC2)cc1 | tobacco budworm (Heliothis virescens [Fabricius]) | 95 |
| Cn1nnc(-c2ccc(CN3CCC(C(O)(c4ccc(C(F)(F)F)cc4)c4ccc(C(F)(F)F)cc4)CC3)cc2)n1 | tobacco budworm (Heliothis virescens [Fabricius]) | 100 |
| Cn1ncn(-c2ccc(CN3CCC(C(O)(c4ccc(C(F)(F)F)cc4)c4ccc(C(F)(F)F)cc4)CC3)cc2)c1=O | tobacco budworm (Heliothis virescens [Fabricius]) | 98 |
| Cn1nnnc1-c1ccc(CN2CCC(C(O)(c3ccc(OC(F)(F)F)cc3)c3ccc(OC(F)(F)F)cc3)CC2)cc1 | tobacco budworm (Heliothis virescens [Fabricius]) | 79 |
| COc1ccc(CN2CCC(C(O)(c3ccc(OC(F)(F)F)cc3)c3ccc(OC(F)(F)F)cc3)CC2)cc1 | tobacco budworm (Heliothis virescens [Fabricius]) | 100 |
| Cn1nnc(-c2ccc(C[N+]3([O-])CCC(C(O)(c4ccc(C(F)(F)F)cc4)c4ccc(C(F)(F)F)cc4)CC3)cc2)n1 (stereo not drawn) | tobacco budworm (Heliothis virescens [Fabricius]) | 100 |

Please turn your attention to the following entry.
Query: Field request: pest or weed control at 100 µM | item: COc1ccc(CCN2CCC(C(O)(c3ccc(OC(F)(F)F)cc3)c3ccc(OC(F)(F)F)cc3)CC2)cc1
Response: 98

---

Kindly supply the reported IC50 values for the records listed here.
Test system: tobacco budworm (Heliothis virescens [Fabricius])
Assay: Diet test: test chemical incorporated into artificial diet of tobacco budworm larvae, 5-day exposure
Format: in vivo
Measurement conditions: Heliothis virescens, 120 h, negative log of the concentration that provides 50% growth inhibition, by linear regression; 5 days; * = average of more than one test; read-out: pl50 (converted)
Give bare numbers, in µM.

Recorded IC50, per entry:
| Compound | Unit annotation | IC50 |
| --- | --- | --- |
| Cn1nnnc1-c1ccc(CN2CCC(C(O)(c3ccc(OC(F)(F)F)cc3)c3ccc(OC(F)(F)F)cc3)CC2)cc1 | µM | 31.6 |
| Cc1ccnc(Oc2ccc(CN3CCC(C(O)(c4ccc(C(F)(F)F)cc4)c4ccc(C(F)(F)F)cc4)CC3)cc2)c1 | µM | 0.631 |
| Cn1ncn(-c2ccc(CN3CCC(C(O)(c4ccc(C(F)(F)F)cc4)c4ccc(C(F)(F)F)cc4)CC3)cc2)c1=O | µM | 3.98 |
| CC(=O)Nc1ccc(CN2CCC(C(O)(c3ccc(OC(F)(F)F)cc3)c3ccc(OC(F)(F)F)cc3)CC2)cc1 | µM | 20 |
| [O-][n+]1ccccc1Oc1ccc(CN2CCC(C(O)(c3ccc(C(F)(F)F)cc3)c3ccc(C(F)(F)F)cc3)CC2)cc1 | µM | 3.16 |

List reported IC50 for each of these compounds:
1. CC1CN(C(=O)c2ccc(CN3CCC(C(O)(c4ccc(C(F)(F)F)cc4)c4ccc(C(F)(F)F)cc4)CC3)cc2)C(=O)O1 (stereo not drawn)
2. OC(c1ccc(OC(F)(F)F)cc1)(c1ccc(OC(F)(F)F)cc1)C1CCN(Cc2ccc(-c3csnn3)cc2)CC1

Response:
1. 31.6
2. 3.16
